Could you please report measured Flow data for the items listed next?
# Measured target: T1, rat nectin-4 protein expressed on the surface of HEK 293 cells (rat, UniProt D3ZET1 31-509)
# T1 construct: whole, on cells
# T1 sequence: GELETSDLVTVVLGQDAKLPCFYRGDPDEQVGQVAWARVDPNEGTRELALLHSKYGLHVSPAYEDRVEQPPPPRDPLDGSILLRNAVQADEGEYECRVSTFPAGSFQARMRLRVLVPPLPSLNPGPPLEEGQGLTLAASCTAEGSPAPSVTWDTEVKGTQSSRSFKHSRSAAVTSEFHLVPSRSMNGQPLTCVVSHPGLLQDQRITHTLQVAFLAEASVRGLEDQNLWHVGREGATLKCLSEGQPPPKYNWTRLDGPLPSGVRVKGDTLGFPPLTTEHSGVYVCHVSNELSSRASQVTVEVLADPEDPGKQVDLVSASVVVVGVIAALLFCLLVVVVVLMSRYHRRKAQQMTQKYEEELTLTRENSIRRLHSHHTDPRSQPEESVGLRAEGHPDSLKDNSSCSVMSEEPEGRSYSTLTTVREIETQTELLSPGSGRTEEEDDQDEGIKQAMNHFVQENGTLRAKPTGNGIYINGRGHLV
# Test details: flow cytometry, HEK 293 cells overexpressing the target
Answer field: number only, no words.

Data request: Endpoint output: Flow data of Enfortumab (antibody, V domains shown) VH: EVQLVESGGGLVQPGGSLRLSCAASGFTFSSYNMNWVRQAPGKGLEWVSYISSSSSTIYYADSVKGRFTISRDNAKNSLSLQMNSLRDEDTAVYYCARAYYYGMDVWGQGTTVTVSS VL: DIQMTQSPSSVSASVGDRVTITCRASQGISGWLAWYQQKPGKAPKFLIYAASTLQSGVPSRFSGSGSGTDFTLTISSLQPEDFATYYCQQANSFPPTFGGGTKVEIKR . Value?
Data returned: 45500

Data request: Endpoint output: Flow data of Nectin-4 5D9H/5D9L (recombinant chimeric antibody) (antibody, V domains shown, also called Nectin-4 5D9 chimeric mAb) VH: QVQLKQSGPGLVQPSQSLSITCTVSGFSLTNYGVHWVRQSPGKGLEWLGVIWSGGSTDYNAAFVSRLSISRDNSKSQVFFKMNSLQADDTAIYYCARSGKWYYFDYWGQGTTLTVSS VL: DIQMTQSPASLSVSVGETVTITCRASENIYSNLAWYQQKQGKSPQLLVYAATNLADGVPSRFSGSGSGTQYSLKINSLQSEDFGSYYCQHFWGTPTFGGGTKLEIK . Value?
Data returned: 2140

Data request: Endpoint output: Flow data of Nectin-4 12E11H/12E11L (recombinant chimeric antibody) (antibody, V domains shown, also called parental 12E11 clone) VH: QVQLKQSGPGLVQPSQSLSITCTVSGFSLTTYGVHWVRQSPGKGLEWLGVIWSGGSTDCNGAFISRLSIIKDNSKSQVFFKMNSLQADDTAIYYCARMTHWYFDVWGTGTTVTVSS VL: DIVMTQSQKFMSTTVGDRVSITCKASQNVNTAVAWYQQKPGQSPKLLIYSASYRYTGVPDRFTGSGSGTDFTLTISNMQSEDLADYFCQQYSNYPLTFGAGTKLELK . Value?
Data returned: 1900

These measurements were taken from patent US20250101098A1.
